system name: T1, human GREM1 (hGREM1-His; SEQ ID NO: 595) (human, UniProt O60565 25-184)
T1 construct: also called biotin-hGREM1-His; recombinant human GREM1 protein
T1 sequence: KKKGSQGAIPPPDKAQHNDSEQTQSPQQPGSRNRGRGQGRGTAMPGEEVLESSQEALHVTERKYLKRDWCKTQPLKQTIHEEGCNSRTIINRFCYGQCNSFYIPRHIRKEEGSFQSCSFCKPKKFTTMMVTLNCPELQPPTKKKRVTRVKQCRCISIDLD
test summary: SPR, Biacore T200, 25 C, mAb captured, hGREM1-His injected;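 also: Heparin-supplemented HBS-EP+ used as running buffer, association and dissociation phases followed, Kd computed as koff divided by kon and half-life derived from koff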
Entries annotated with measured t1/2
State the answer as a number, implicitly in min.

Q) What value of measured t1/2 is listed for H4H2783N2 (antibody, human IgG4, V domains shown, H4H prefix = human IgG4 Fc) VH: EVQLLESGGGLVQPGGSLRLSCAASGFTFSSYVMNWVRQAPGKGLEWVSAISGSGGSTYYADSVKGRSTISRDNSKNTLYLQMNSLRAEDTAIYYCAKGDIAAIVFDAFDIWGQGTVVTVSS VL: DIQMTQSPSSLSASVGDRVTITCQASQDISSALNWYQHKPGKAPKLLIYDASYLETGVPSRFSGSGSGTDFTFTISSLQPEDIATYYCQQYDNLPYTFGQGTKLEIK ?
A) 24

Q) What value of measured t1/2 is listed for H2bM2906N (antibody, mouse IgG2, V domains shown, H2M prefix = mouse IgG2 Fc (here H2bM); also called H2M2906N) VH: EVQMVESGGGLVQPGGSLRLSCAASGFTLSNYWMGWVRQAPGKGLEWVANIKQDGSEKYYVDSVRGRFTISRDNAKNSLYLQMNSLRAEDTAVYYCARDYDFWRSFDYWGQGTLVTVSS VL: DIQMTQSPSSVSASVGDRVTITCRASQGVSSWLAWYQQKPGKTPKLLIYVVSSLQSGVPSRFSGRGSGTDFTLTINSLQPEDFATYYCQQGNSFPYTFGQGTKLEIK ?
A) 8.9

From here, focus on the item given below.
Q) What value of measured t1/2 is listed for H4H6245P (antibody, human IgG4, V domains shown, H4H prefix = human IgG4 Fc) VH: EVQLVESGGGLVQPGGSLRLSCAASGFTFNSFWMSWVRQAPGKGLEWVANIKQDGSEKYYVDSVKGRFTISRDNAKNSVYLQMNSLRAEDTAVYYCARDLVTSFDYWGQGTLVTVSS VL: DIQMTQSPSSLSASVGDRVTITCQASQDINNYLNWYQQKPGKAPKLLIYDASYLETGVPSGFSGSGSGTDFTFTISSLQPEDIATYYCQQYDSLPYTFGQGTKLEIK ?
A) 98
